Cited source for all entries: patent US10053468B2

- tested system: RORγt (Homo sapiens)
- Sequence (P51449 1-497 isoform P51449-2, species assumed): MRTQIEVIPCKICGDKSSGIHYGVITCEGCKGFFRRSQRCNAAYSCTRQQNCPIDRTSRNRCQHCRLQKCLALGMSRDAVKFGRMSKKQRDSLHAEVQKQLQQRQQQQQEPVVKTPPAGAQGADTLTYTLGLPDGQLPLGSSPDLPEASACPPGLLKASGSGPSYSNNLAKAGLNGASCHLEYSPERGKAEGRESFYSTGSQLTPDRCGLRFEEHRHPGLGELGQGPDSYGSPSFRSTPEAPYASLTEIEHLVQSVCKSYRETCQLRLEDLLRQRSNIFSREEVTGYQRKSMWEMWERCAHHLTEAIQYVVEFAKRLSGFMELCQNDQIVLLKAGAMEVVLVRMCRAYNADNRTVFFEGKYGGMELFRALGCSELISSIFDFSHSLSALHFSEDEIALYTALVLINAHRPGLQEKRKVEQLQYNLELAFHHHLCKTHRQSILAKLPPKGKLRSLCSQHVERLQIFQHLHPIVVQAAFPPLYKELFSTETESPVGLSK
- method description: Cofactor recruitment test (Alpha Screen, biotinylated SRC-1 peptide)
- Type: biochemical
- recorded conditions: read-out: Signal value inhibitory rate at test compound 1 μM (%)
- Protocol: Cofactor Recruitment Test Cofactor recruitment test was performed by Alpha Screen (Histidine Detection Kit, PerkinElmer) method. First, a test compound was diluted with an assay buffer (50 mM Tris-HCl (pH 7.5), 50 mM KCl, 1 mM DTT, 0.1% BSA) and added to a 384 well plate by 5 μL. […] The mixture was stood in a dark place for 1 hr, and the signal value was measured by Envision (PerkinElmer).
quantity kind: inhibition at 1 µM (%)
One number for each entry, in %.

Sample answers from the record:
COc1ccc2c(c1)CCN(C(=O)CC#N)[C@H]2C(=O)Nc1cc(F)c(C(C)(C)C(=O)N2CCCC2)c(F)c1    101
COc1ccc2c(n1)CCN(C(=O)N1CC(CC(=O)O)C1)[C@H]2C(=O)Nc1cc(F)c([Si](C)(C)C)c(F)c1    89
COCc1ccc2c(n1)CCN(C(=O)Cc1cc(O)no1)[C@H]2C(=O)Nc1cc(F)c([Si](C)(C)C)c(F)c1    100
COc1ccc2c(c1)CCN(C(=O)c1cc(O)no1)[C@H]2C(=O)Nc1ccc([Si](C)(C)C)c(F)c1    92.8
CCOc1ccc2c(c1)CCN(C(=O)c1cc(O)no1)[C@H]2C(=O)Nc1cc(F)c(C(C)(C)COC)c(F)c1    97
COc1ccc2c(c1)CCN(C(=O)Cc1cc(O)no1)[C@H]2C(=O)Nc1cc(F)c2c(c1)CCC2(C)C    76.9

Please report inhibition at 1 µM for every entry that follows.
1. COc1ccc2c(n1)CCN(C(=O)c1cc(O)no1)[C@H]2C(=O)Nc1cc(F)c2c(c1)CCC2(C)C
2. COc1ccc2c(c1)CCN(C(=O)Cc1cccnc1)[C@H]2C(=O)Nc1cc(F)c(C(C)(C)C(=O)N2CCCC2)c(F)c1

[89, 100]
